Quick reference for normalized growth among some compounds
assay: chemical genetic growth profiling, strain panel (AID 1159580);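 also: tested at 20 µM; growth read once vehicle control cultures reached saturation at 30 °C; 1 = growth at the plate median or of vehicle wells; lower values mean less growth of the strain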; conditions: S. cerevisiae deletion strains, growth OD, locus YIR030C, strain dcg1, active compounds read low
In all, about 5,500 compounds went through this assay and about 2,000 (36%) were called active. Not shown: some 18% with an inconclusive outcome. The list shows a part of the results.
The answer should be written as a number, with no unit following it.

>>> val("C[N+](C)(C)CC(=O)[O-]")
0.994

What value of measured normalized growth is listed for O=C(O)c1ccccc1OP(=O)(O)O ?
0.995

Follow-up item: C=CC(C)(C)c1c2c(c(O)c3c(=O)c4ccc(O)c(O)c4oc13)C=CC(C)(C)O2
1

Follow-up item: C=CCc1ccc2c(c1)OCO2
0.988

Follow-up item: CCC(C(N)=O)c1ccccc1 (stereo not drawn)
0.998

Follow-up item: c1ccc(CN(CC2=NCCN2)c2ccccc2)cc1
0.991

Follow-up item: Cc1c(N(C)C)c(=O)n(-c2ccccc2)n1C
0.99

Follow-up item: CC1(C)S[C@@H]2[C@H](NC(=O)[C@H](NC(=O)N3CCNC3=O)c3ccccc3)C(=O)N2C1C(=O)O (stereo partly drawn)
0.969

Follow-up item: CC(C)[N+](C)(CCOC(=O)C1c2ccccc2Oc2ccccc21)C(C)C
1.01

Follow-up item: OCC(O)Cc1ccc2c(c1)OCO2 (stereo not drawn)
1

---

assay: chemical genetic growth profiling, strain panel (AID 1159580);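 also: tested at 20 µM; growth read once vehicle control cultures reached saturation at 30 °C; 1 = growth at the plate median or of vehicle wells; lower values mean less growth of the strain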; settings: S. cerevisiae deletion strains, growth OD, locus YLR221C, strain rsa3, active compounds read low
Hit rate of the full screen: of about 5,500 compounds, about 2,000 (36%) were called active. Another 18% or so got no clear call; they are omitted. The list shows a part of the results.
quantityKind: normalized growth
The answer should be written as a number, with no unit following it.

Answered cases to consult:
>>> val("CCCCOc1ccc(CC(=O)NO)cc1")
0.963
>>> val("CCCCCC(=O)O[C@]1(C(C)=O)CCC2C3CCC4=CC(=O)CC[C@]4(C)C3CC[C@@]21C (some centres undefined)")
0.999
>>> val("C[C@@H]1O[C@@H](O[C@H]2[C@@H](Oc3cc(O)c4c(c3)O[C@H](c3ccc(O)cc3)CC4=O)O[C@H](CO)[C@@H](O)[C@@H]2O)[C@H](O)[C@H](O)[C@H]1O")
0.957

// moving on: another record for normalized growth
What value of measured normalized growth is listed for CNc1ccccc1C(=O)N1CCc2c([nH]c3ccccc23)C1=O ?
1.01

---

assay: chemical genetic growth profiling, strain panel (AID 1159580);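 also: tested at 20 µM; growth read once vehicle control cultures reached saturation at 30 °C; 1 = growth at the plate median or of vehicle wells; lower values mean less growth of the strain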; settings: S. cerevisiae deletion strains, growth OD, locus YLR113W, strain HOG1, active compounds read low
The campaign covered roughly 5,500 compounds. About 2,000 (36%) were called active. Another 18% or so got no clear call; they are omitted. This is one part of the list.
Quick reference for normalized growth among some compounds
The answer should be written as a number, with no unit following it.

What value of measured normalized growth is listed for O=[N+]([O-])O[C@H]1CO[C@H]2[C@@H]1OC[C@H]2O[N+](=O)[O-] ?
0.926

Follow-up item: COc1cc2oc3cc(OC)c(OC)c(CC=C(C)C)c3c(=O)c2c(OC)c1CC=C(C)C
0.895

Follow-up item: C=C1CC2C3C=C(C)C4=CC(=O)CC[C@]4(C)C3CC[C@]2(C)[C@@]1(OC(C)=O)C(C)=O (stereo partly drawn)
0.92
